Entries annotated with measured abundance fitness
B1: Histone-lysine N-methyltransferase SETD2, residues 2382 to 2430; numbered along this chain, Q9BYW2 (parent)
chain: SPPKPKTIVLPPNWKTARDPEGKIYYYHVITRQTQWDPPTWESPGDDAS

Variants of: B1
Test: abundance fitness (aPCA) (normalised: wild type 0, dead -1); higher = more abundant; growth selection in yeast, the domain comes from the species named
Conditions: Homo sapiens
Measure: abundance fitness

variant_identifier=D47P measure="abundance fitness" test_value=-0.2
variant_identifier=A17I measure="abundance fitness" test_value=-0.184
variant_identifier=I30P measure="abundance fitness" test_value=-0.08
variant_identifier=P5F measure="abundance fitness" test_value=0.133
variant_identifier=T31Q measure="abundance fitness" test_value=-0.627
variant_identifier=D47Y measure="abundance fitness" test_value=-0.023
variant_identifier=P38F measure="abundance fitness" test_value=-0.143
variant_identifier=R32P measure="abundance fitness" test_value=-0.617
variant_identifier=E21Q measure="abundance fitness" test_value=-0.217
variant_identifier=T31A measure="abundance fitness" test_value=-0.742
variant_identifier=V9S measure="abundance fitness" test_value=-0.093
variant_identifier=V29M measure="abundance fitness" test_value=0.079
variant_identifier=R18P measure="abundance fitness" test_value=-0.576
variant_identifier=D19H measure="abundance fitness" test_value=0.027
variant_identifier=P3V measure="abundance fitness" test_value=0.444
variant_identifier=P44C measure="abundance fitness" test_value=-0.448

Numbers sourced from the Human Domainome abundance scans (Beltran et al. 2025).
